- test.protocol: Acute toxicity, mice
- conditions.used: mouse, in vivo, sc, male, observed 7 days
measure: LD50 at 168 h (mg/kg)
Numbers only, in mg/kg.

{"compound": "Cc1ccc2c(c1)C1CN(C)CCC1N2 (centres unmarked)", "units.text": "mg/kg", "experimental.result": 237}

LD50 at 168 h reported for this compound Cc1ccc2c(c1)C1CN(CCCC(=O)c3ccc(F)cc3)CCC1N2.Cl.Cl (centres unmarked) : 373

---

- test.protocol: Acute toxicity, mice
- conditions.used: mouse, in vivo, po, male, observed 4 days
measure: LD50 at 96 h (mg/kg)
Give bare numbers, in mg/kg.

So, CN1CCN(C2=Nc3cc(Cl)ccc3Nc3ccccc32)CC1 [Clozapine] ? Its LD50 at 96 h was 202
